- assayedSystem: recombinant homotrimeric HA, A/Solomon Islands/3/06 H1N1 (Influenza A virus A/Solomon Islands/3/06 (H1N1))
- protocolSummary: trimeric HA microarray, transfection set 3
- measurementParameters: remark: other sources report otherwise
propertyMeasured: Trimeric HA Binding RLU (RLU)
Provide only the numeric value, understood in RLU.

[ask] Tell me the measured Trimeric HA Binding RLU of TCN-523 (5248_A17) (antibody, V domains shown) VH: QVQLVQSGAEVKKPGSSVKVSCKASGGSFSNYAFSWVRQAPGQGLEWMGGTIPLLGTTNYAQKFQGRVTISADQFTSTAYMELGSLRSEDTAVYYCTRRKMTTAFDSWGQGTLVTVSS VL: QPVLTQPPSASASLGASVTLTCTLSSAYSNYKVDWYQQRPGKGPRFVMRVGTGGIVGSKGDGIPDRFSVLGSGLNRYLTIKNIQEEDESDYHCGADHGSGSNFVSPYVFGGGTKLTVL , please.
[reply] 11000

[ask] Tell me the measured Trimeric HA Binding RLU of TCN-530 (5248_H10a) (antibody, V domains shown) VH: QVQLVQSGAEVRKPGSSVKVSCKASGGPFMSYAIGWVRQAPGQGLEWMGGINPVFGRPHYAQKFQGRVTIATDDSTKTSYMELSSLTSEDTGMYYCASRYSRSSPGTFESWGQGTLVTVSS VL: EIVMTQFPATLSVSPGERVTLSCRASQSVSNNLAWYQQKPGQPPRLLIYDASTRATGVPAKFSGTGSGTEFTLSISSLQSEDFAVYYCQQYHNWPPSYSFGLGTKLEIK , please.
[reply] 13800

[ask] Tell me the measured Trimeric HA Binding RLU of TCN-532 (5262_H18) (antibody, V domains shown) VH: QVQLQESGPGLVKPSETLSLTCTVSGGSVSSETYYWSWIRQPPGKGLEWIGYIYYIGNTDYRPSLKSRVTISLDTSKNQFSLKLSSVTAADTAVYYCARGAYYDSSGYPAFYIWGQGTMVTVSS VL: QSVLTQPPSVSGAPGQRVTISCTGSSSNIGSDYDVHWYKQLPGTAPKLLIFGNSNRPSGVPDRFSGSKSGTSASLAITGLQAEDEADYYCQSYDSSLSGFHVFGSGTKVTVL , please.
[reply] 59

[ask] Tell me the measured Trimeric HA Binding RLU of TCN-529 (5297_H01) (antibody, V domains shown) VH: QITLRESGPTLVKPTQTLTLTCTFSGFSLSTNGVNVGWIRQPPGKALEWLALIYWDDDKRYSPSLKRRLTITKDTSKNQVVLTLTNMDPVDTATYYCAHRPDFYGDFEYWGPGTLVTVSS VL: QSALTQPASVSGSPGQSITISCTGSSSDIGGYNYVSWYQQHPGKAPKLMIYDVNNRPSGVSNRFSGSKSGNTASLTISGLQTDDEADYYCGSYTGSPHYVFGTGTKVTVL , please.
[reply] 43

[ask] Tell me the measured Trimeric HA Binding RLU of TCN-533 (5256_A17) (antibody, V domains shown) VH: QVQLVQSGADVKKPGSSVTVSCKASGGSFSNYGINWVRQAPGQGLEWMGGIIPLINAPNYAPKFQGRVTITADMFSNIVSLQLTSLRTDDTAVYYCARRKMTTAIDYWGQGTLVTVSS VL: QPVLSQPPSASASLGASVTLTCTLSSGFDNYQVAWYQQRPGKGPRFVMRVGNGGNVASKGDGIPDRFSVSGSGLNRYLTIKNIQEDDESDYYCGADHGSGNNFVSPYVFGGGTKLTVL , please.
[reply] 15500

[ask] Tell me the measured Trimeric HA Binding RLU of TCN-504 (3251_K17) (antibody, V domains shown) VH: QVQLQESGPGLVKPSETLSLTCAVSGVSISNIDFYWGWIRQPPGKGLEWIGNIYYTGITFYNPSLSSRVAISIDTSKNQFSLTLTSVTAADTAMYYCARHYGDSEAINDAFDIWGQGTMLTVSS VL: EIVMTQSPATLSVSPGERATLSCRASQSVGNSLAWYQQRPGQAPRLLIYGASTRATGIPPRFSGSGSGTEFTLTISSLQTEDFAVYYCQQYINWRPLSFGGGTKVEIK , please.
[reply] 32700
